- System: influenza virus type A2 /Hong Kong/5/68
- Assay type: in vivo
- Condition Set: mice, 250 mg/kg oral 3 hours before and 1 hour after infection; pooled lungs 24 hours after infection; greatest dilution producing agglutination
I'd appreciate it if you could supply Haemagglutinin titre-treated animals values for the items below.

See these solved cases before continuing.
Molecule Smiles	Haemagglutinin titre-treated animals
COC(=O)NC(=S)Nc1ccc(NC(=O)OC(C)C)cc1NC(C)=O	1/256
COC(=O)NC(=S)Nc1cc(NC(=O)OC(C)C)ccc1NC(C)=O	1/128

Please supply Haemagglutinin titre-treated animals for each of the following items, keeping them in order.
1. CCOC(=O)NC(=S)Nc1ccc(F)cc1N
2. CCOC(=O)NC(=S)Nc1cc(NC(=O)OC(C)C)ccc1NC(C)=O
3. CCCCc1ccc(NC(=O)OCC)c(NC(=S)NC(=O)OC)c1
4. COC(=O)NC(=S)Nc1cc(NC(=O)OC(C)C)ccc1NC=O

*A*
1. 1/32
2. 1/256
3. 1/64
4. 1/256

* * *

I'd appreciate it if you could supply Haemagglutinin titre-treated animals values for the items below.
- System: influenza virus type A2 /Hong Kong/5/68
- Type: in vivo
- Condition Set: mice, 250 mg/kg oral 3 hours before and 1 hour after infection; pooled lungs 24 hours after infection; greatest dilution producing agglutination
Structures can show the parent of a compound that is named as a salt.

See these solved cases before continuing.
Molecule	Tgt	Haemagglutinin titre-treated animals
CCCCc1ccc(NC(=O)C2CC2)c(NC(=S)NC(=O)OC)c1	influenza virus type A2 /Hong Kong/5/68	1/128
COC(=O)NC(=S)Nc1ccc(NC(=O)OC)cc1N	influenza virus type A2 /Hong Kong/5/68	1/512
COC(=O)NC(=S)Nc1ccccc1NC(=O)C[N+](C)(C)C	influenza virus type A2 /Hong Kong/5/68	1/256
Nc1ccccc1NC(=S)NC(=O)OCCCl	influenza virus type A2 /Hong Kong/5/68	1/32
CCCCN(C)CC(=O)Nc1ccccc1NC(=S)NC(=O)OCC [hydrochloride]	influenza virus type A2 /Hong Kong/5/68	1/4

*Q* Please give the measured Haemagglutinin titre-treated animals for this molecule: CCCCc1ccc(NC=O)c(NC(=S)NC(=O)OC)c1
*A* 1/32

* * *

I'd appreciate it if you could supply inhibition in vivo at 250 mg/kg values for the items below.
- Test system: Nippostrongylus brasiliensis
- Protocol Notes: Test 2: activity against roundworms in rats, treatment 24 hours after infection, worm counts 6 days after dosing
- Type: in vivo
- Condition Set: Nippostrongylus brasiliensis, ip, 144 h; rats, Test 2, 250 mg/kg intraperitoneal; read-out: Percentage reduction in N.brasiliensis load
Where a name gives a salt, the structure may show the parent alone.
Numbers only, in %.

See these solved cases before continuing.
Molecule	inhibition in vivo at 250 mg/kg (%)
CCOC(=O)NC(=S)Nc1ccccc1NC(=O)CN(CC)CC [hydrochloride]	99
CCOC(=O)NC(=S)Nc1ccccc1NC(=O)CN1CCN(C)CC1.Cl [hydrochloride]	98
COC(=O)NC(=S)Nc1ccccc1NC(=O)CN(C)C [hydrochloride]	96
CCOC(=O)NC(=S)Nc1cc(NC(=O)OC(C)C)ccc1NC(=O)CN(C)C [hydrochloride]	50

Next molecule, inhibition in vivo at 250 mg/kg to be filled in.
*Q* Please give the measured inhibition in vivo at 250 mg/kg for this molecule: CCOC(=O)NC(=S)Nc1ccccc1NC(=O)CN1C[C@@H](C)O[C@@H](C)C1
*A* 93

* * *

- Test system: Trichostrongylus colubriformis
- Protocol Notes: Activity against mature adult stages in lambs, oral treatment (Table III)
- Assay type: in vivo
- Condition Set: 120 h, 15 mg/kg oral, read-out: Mean percentage reduction in worm burdens, T.colubriformis
Structures can show the parent of a compound that is named as a salt.
Measurement Kind: inhibition in vivo at 15 mg/kg (%)
Numbers only, in %.

See these solved cases before continuing.
Molecule	inhibition in vivo at 15 mg/kg, %
CCCCc1ccc(NC(C)=O)c(NC(=S)NC(=O)OC)c1	95
CCCCc1ccc(NC(=O)OCC)c(NC(=S)NC(=O)OC)c1	40.1
COC(=O)NC(=S)Nc1ccc(NC(=O)OC(C)C)cc1NC=O	29.6
CCCCc1ccc(NC(=S)NC(=O)OC)c(NC(=O)C2CC2)c1	27.1
COC(=O)NC(=S)Nc1ccc(NC(=O)OC(C)C)cc1N	83
COC(=O)NC(=S)Nc1ccccc1NC(=O)CN(C)C [hydrochloride]	43.4

Please supply inhibition in vivo at 15 mg/kg for each of the following items, keeping them in order.
1. CCCCc1ccc(NC(=S)NC(=O)OC)c(NC(C)=O)c1
2. CCCCc1ccc(NC(=S)NC(=O)OC)c(NC=O)c1

*A*
1: 6.7; 2: 36.9

* * *

- System: Nippostrongylus brasiliensis
- Protocol Notes: Test 2: activity against roundworms in rats, treatment 24 hours after infection, worm counts 6 days after dosing
- Assay type: in vivo
- Condition Set: Nippostrongylus brasiliensis, sc, 144 h; rats, Test 2, 250 mg/kg subcutaneous; read-out: Percentage reduction in N.brasiliensis load
Where a name gives a salt, the structure may show the parent alone.
Measurement Kind: inhibition in vivo at 250 mg/kg (%)
One number for each entry, in %.

See these solved cases before continuing.
Compound	Display Unit	Value Observed
CCOC(=O)NC(=S)Nc1ccccc1NC(=O)CN(CC)CC [hydrochloride]	%	95
COC(=O)NC(=S)Nc1ccccc1NC(=O)CN(C)C [hydrochloride]	%	99.5
CCOC(=O)NC(=S)Nc1cc(NC(=O)OC(C)C)ccc1NC(=O)CN(C)C [hydrochloride]	%	60
CCOC(=O)NC(=S)Nc1ccccc1NC(=O)CN1CCN(C)CC1.Cl [hydrochloride]	%	93

Next compound, inhibition in vivo at 250 mg/kg to be filled in.
*Q* Please give the measured inhibition in vivo at 250 mg/kg for this compound: CCOC(=O)NC(=S)Nc1ccccc1NC(=O)CN1C[C@@H](C)O[C@@H](C)C1
*A* 95

* * *

- Test system: Nippostrongylus brasiliensis
- Protocol Notes: Test 2: activity against roundworms in rats, treatment 24 hours after infection, worm counts 6 days after dosing
- Type: in vivo
- Condition Set: Nippostrongylus brasiliensis, 144 h; rats, Test 2, 1000 mg/kg oral; read-out: Percentage reduction in N.brasiliensis load
Structures can show the parent of a compound that is named as a salt.
Measurement Kind: inhibition in vivo at 1000 mg/kg

Compound	Tgt	inhibition in vivo at 1000 mg/kg
CCOC(=O)NC(=S)Nc1ccccc1NC(=O)CN1CCCCC1 [hydrochloride]	Nippostrongylus brasiliensis	98%
COC(=O)NC(=S)Nc1ccccc1NC(=O)CN(C)C [hydrochloride]	Nippostrongylus brasiliensis	100%
COC(=O)NC(=S)Nc1ccccc1N [hydrochloride]	Nippostrongylus brasiliensis	100%
CCOC(=O)NC(=S)Nc1cc(NC(=O)OC)ccc1NC(=O)CN(C)C [hydrochloride]	Nippostrongylus brasiliensis	100%
CCOC(=O)NC(=S)Nc1ccccc1NC(=O)CN(CC)CC [hydrochloride]	Nippostrongylus brasiliensis	100%

Please supply inhibition in vivo at 1000 mg/kg for each of the following items, keeping them in order.
1. CCCCN(C)CC(=O)Nc1ccccc1NC(=S)NC(=O)OCC [hydrochloride]
2. CCOCCOC(=O)NC(=S)Nc1ccccc1N
3. COC(=O)NC(=S)Nc1ccccc1NC(=O)CCN(C)C.Cl [hydrochloride]

*A*
1. 99%
2. 90%
3. 98%

Please supply inhibition in vivo at 1000 mg/kg for each of the following items, keeping them in order.
1. C#CCOC(=O)NC(=S)Nc1ccccc1N
2. COC(=O)NC(=S)Nc1ccc(C)cc1N
3. CCOC(=O)NC(=S)Nc1ccccc1NC(=O)CN(C)Cc1ccccc1 [hydrochloride]

*A*
1. 100%
2. 97%
3. 99%

* * *

- Tested on: Nippostrongylus brasiliensis
- Protocol Notes: Test 2: activity against roundworms in rats, treatment 24 hours after infection, worm counts 6 days after dosing
- Format: in vivo
- Condition Set: Nippostrongylus brasiliensis, 144 h; rats, Test 2, 1000 mg/kg oral; read-out: Percentage reduction in N.brasiliensis load
Structures can show the parent of a compound that is named as a salt.
Measurement Kind: inhibition in vivo at 1000 mg/kg (%)
Answers are plain numbers, in %.

See these solved cases before continuing.
Compound	Tgt	Measurement Kind	Value Observed
CCCCc1ccc(NC(C)=O)c(NC(=S)NC(=O)OC)c1	Nippostrongylus brasiliensis	inhibition in vivo at 1000 mg/kg	99
CCCCN(CCCC)CC(=O)Nc1ccccc1NC(=S)NC(=O)OCC [hydrochloride]	Nippostrongylus brasiliensis	inhibition in vivo at 1000 mg/kg	97
COC(=O)NC(=S)Nc1ccc(NC(=O)OC)cc1N	Nippostrongylus brasiliensis	inhibition in vivo at 1000 mg/kg	100
CCOC(=O)NC(=S)Nc1ccccc1NC(=O)C(C)N(C)C (racemic)	Nippostrongylus brasiliensis	inhibition in vivo at 1000 mg/kg	100

*Q* Please give the measured inhibition in vivo at 1000 mg/kg for this compound: CCOC(=O)NC(=S)Nc1ccccc1NC(=O)CN1CCOCC1 [hydrochloride]
*A* 99
